Recorded measurements of EC50, one per entry
molecular target: hGcgR (Homo sapiens); experiment: Functional cAMP activation in the presence of 0.1% casein (no HSA); assay type: cell-based; conditions: in the presence of 0.1% casein (no HSA); geometric mean; read-out: Relative cAMP EC50, hGcgR;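 further: intracellular cAMP rise after 30 min at 37 °C, read by HTRF against a cAMP standard curve, scaled from buffer only (0%) to maximal control ligand response (100%)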
Sequence (P47871 26-477): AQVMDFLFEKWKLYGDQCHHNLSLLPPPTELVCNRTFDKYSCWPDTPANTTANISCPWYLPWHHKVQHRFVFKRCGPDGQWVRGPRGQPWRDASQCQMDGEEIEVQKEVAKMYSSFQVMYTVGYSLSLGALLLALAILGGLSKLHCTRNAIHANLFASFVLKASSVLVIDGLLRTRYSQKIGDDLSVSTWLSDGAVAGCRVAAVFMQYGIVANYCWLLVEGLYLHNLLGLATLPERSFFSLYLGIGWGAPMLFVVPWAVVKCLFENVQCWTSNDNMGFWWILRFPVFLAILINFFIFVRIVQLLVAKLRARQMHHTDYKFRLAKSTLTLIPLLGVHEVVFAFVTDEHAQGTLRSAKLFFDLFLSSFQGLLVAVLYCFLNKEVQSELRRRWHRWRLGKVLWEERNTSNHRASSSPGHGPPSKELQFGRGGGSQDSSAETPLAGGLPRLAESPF
Starred links: 1 amine or outer side, 2 acyl side, 3 side chain; linkers in the order of their positions; H or OH if unused. Non-standard residues stand in square brackets, D forms with d. Groups on a side chain read outwards from the residue. No end group written: not given here. *: point of attachment. C20 diacid = O=C(O)CCCCCCCCCCCCCCCCCCC(=O)*; C18 diacid = O=C(O)CCCCCCCCCCCCCCCCC(=O)*; γGlu = O=C(O)[C@H](CCC(=O)[*:2])N[*:1]; αMe4Pal = C[C@](N)(Cc1ccncc1)C(=O)O; 4Pal = N[C@@H](Cc1ccncc1)C(=O)O; αMeL = CC(C)C[C@](C)(N)C(=O)O; Orn = NCCC[C@H](N)C(=O)O; AEEA = NCCOCCOCC(=O)O; Aib = CC(C)(N)C(=O)O
Parameter Measured: EC50

# Substance, Target Desc, Value
data = [
    ("H-Y[Aib]QGTFTSDFSK[αMeL]LDKK([AEEA-γGlu-C20 diacid])AQ[Aib]AFIEWLLEGGPSSGAPPPSEG-NH2 [Example 37]", "hGcgR (Homo sapiens)", "6.83 nM"),
    ("Y[Aib]QGTFTSD[4Pal]SQ[αMeL]LD[Orn]K([γGlu-γGlu-C18 diacid])AQ[αMe4Pal]AFIEYLIE[Aib]GPSSGAPPPSGS-NH2 [Example 935]", "hGcgR (Homo sapiens)", "4.04 nM"),
    ("H-Y[Aib]QGTFTSDFSK[αMeL]LDKK([AEEA-γGlu-C20 diacid])AQ[Aib]AFIEYLLAGGPSSGEPPPSGE[AEEA]-NH2 [Example 33]", "hGcgR (Homo sapiens)", "7.04 nM"),
    ("H-Y[Aib]QGTFTSDFS[Orn][αMeL]LDKK([γGlu-AEEA-γGlu-C18 diacid])AQ[Aib]AFIEYLLE[Aib]GHSSGAPPPSGS-NH2 [Example 245]", "hGcgR (Homo sapiens)", "7.07 nM"),
    ("H-Y[Aib]QGTFTSDFS[Orn][αMeL]LDKK([AEEA-γGlu-C18 diacid])AQ[Aib]AFIEYLLAGGPSSGAPPPEGS-NH2 [Example 93]", "hGcgR (Homo sapiens)", "7.16 nM"),
]
